# human CB1 receptor (Homo sapiens, UniProt P21554): IC50 values follow
# Sequence (P21554 whole entry): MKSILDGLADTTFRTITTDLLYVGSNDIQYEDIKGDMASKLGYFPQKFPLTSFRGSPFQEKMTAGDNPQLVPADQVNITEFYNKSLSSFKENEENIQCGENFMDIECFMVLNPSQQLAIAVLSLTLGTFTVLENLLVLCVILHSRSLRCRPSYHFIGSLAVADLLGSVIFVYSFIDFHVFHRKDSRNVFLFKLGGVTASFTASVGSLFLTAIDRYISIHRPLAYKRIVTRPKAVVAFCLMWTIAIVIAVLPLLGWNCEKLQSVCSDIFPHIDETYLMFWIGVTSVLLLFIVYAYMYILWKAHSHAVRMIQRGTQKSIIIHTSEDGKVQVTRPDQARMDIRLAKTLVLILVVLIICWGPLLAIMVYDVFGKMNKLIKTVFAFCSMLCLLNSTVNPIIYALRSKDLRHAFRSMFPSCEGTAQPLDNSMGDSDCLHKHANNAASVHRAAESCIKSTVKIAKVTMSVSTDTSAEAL

These solved cases illustrate the format of a correct answer.
CCCCCc1cc(O)c(C/C=C(\C)CCC=C(C)C)c(O)c1-c1cn[nH]c1 [Compound 38]	0.5 to 0.99 µM
CCCCCc1cc(O)c(C/C=C(\C)CCC=C(C)C)c(O)c1-c1cc2ccccc2o1 [Compound 32]	0.5 to 0.99 µM
CCCCCc1cc(O)c(C/C=C(\C)CCC=C(C)C)c(O)c1-c1ccc2[nH]ncc2c1 [Compound 41]	< 0.5 µM
CCCc1cc(O)c(C/C=C(\C)CCC=C(C)C)c(O)c1-c1cc2ccccc2o1 [Compound 44]	0.5 to 0.99 µM
CCCCCc1cc(O)c(C/C=C(\C)CCC=C(C)C)c(O)c1-c1cncnc1 [Compound 13]	1 to 4.99 µM

Query: Enter IC50 (test system human CB1 receptor (Homo sapiens, UniProt P21554)) for CCCCCc1cc(O)c(C/C=C(\C)CCC=C(C)C)c(O)c1-c1ccnn1C [Compound 35]
Reply: 1 to 4.99 µM

Query: Enter IC50 (test system human CB1 receptor (Homo sapiens, UniProt P21554)) for CCCCCc1cc(O)c(C/C=C(\C)CCC=C(C)C)c(O)c1-c1ccco1 [Compound 15]
Reply: 1 to 4.99 µM

Query: Enter IC50 (test system human CB1 receptor (Homo sapiens, UniProt P21554)) for CCCCCc1cc(O)c(C/C=C(\C)CCC=C(C)C)c(O)c1-c1cc2ccccc2s1 [Compound 33]
Reply: 1 to 4.99 µM

Query: Enter IC50 (test system human CB1 receptor (Homo sapiens, UniProt P21554)) for CCCCCc1cc(O)c(C/C=C(\C)CCC=C(C)C)c(O)c1-c1c(C)noc1C [Compound 37]
Reply: > 5 µM

Query: Enter IC50 (test system human CB1 receptor (Homo sapiens, UniProt P21554)) for CCCCCc1cc(O)c(C/C=C(\C)CCC=C(C)C)c(O)c1-c1cccc(N2CCOCC2)c1 [Compound 36]
Reply: < 0.5 µM
